target: D(4) dopamine receptor (Homo sapiens, UniProt P21917); test: Displacement of [3H]spiperone from human Dopamine receptor D4
Sequence (P21917 whole entry): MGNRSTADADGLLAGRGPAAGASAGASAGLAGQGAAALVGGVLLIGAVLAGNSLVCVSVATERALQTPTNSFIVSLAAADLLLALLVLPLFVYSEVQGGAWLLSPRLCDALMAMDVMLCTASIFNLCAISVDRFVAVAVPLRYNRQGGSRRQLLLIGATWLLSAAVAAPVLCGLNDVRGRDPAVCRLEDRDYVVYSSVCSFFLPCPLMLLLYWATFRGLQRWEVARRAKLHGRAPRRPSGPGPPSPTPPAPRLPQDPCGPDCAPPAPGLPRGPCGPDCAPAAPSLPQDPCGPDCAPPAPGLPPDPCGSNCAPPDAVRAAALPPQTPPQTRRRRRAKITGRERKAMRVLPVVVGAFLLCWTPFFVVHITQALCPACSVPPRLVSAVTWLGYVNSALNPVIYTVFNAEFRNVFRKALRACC
Value type: pKi

* O=C(CCCN1CCC(C(O)c2ccc(Cl)cc2)CC1)c1ccc(F)cc1 (centres undefined) | 6.91
* O=C(CCCN1CCC(CO)(c2ccc(Cl)cc2)C1)c1ccc(F)cc1 (centres undefined) | 7.62
* O=C(CCCN1CCC(CCO)(c2ccc(Cl)cc2)C1)c1ccc(F)cc1 (centres undefined) | 6.71
* O=C(CCCN1CCC(O)(Cc2ccc(Cl)cc2)CC1)c1ccc(F)cc1 | 7.23
* O=C(CCCN1CCC(CO)(c2ccc(Cl)cc2)CC1)c1ccc(F)cc1 | 7.11
* O=C(CCCN1CCC(c2ccc(Cl)cc2)CC1)c1ccc(F)cc1 | 7.59
* O=C(CCCN1CCC(c2ccc(Cl)cc2)C1)c1ccc(F)cc1 (centres undefined) | 7.82
* CN(CCCC(=O)c1ccc(F)cc1)CCCC(O)c1ccc(Cl)cc1 (centres undefined) | 6.72
